# measured.target: recombinant full-length human prolyl endopeptidase (PREP) (Homo sapiens, UniProt P48147)
# Construct: To recombinant full-length human prolyl endopeptidase (PREP, R&D-Systems, 4308-SE); purchased R&D-Systems 4308-SE
# protocol.text: Biochemical human prolyl endopeptidase (PREP) assay with fluorescently labelled substrate
# applied.conditions: substrate Z-Gly-Pro-AMC 50 μM, 32° C., 60 min; some as mean values from multiple independent determinations
Catalogue of IC50 readings, one per entry.
measured.quantity: IC50 (nM)

>>> observed_measurement("O=C(C1CC(C(F)(F)F)Cc2nn(Cc3ccc(Cl)nc3)c(=O)n21)N1CCC(F)(F)C1 (racemic) [Example 230]")
2.3
>>> observed_measurement("O=C([C@@H]1CCCc2nn(Cc3ccc(Cl)nc3)c(=O)n21)N1CCC(F)(F)C1 [Example 423]")
1.85
>>> observed_measurement("O=C([C@@H]1CCCc2nn(CCc3ccc(F)cc3)c(=O)n21)N1CC(F)(F)C1 [Example 345]")
6.4
>>> observed_measurement("O=C([C@@H]1CCCc2nn(Cc3ccc(C(F)(F)F)c(F)c3)c(=O)n21)N1CCC(F)(F)C1 [Example 470]")
0.82

----------
Catalogue of pIC50 readings, one per entry.
# measured.target: recombinant full-length human prolyl endopeptidase (PREP) (Homo sapiens)
# Construct: To recombinant full-length human prolyl endopeptidase (PREP, R&D-Systems, 4308-SE)
# Sequence (P48147 1-710): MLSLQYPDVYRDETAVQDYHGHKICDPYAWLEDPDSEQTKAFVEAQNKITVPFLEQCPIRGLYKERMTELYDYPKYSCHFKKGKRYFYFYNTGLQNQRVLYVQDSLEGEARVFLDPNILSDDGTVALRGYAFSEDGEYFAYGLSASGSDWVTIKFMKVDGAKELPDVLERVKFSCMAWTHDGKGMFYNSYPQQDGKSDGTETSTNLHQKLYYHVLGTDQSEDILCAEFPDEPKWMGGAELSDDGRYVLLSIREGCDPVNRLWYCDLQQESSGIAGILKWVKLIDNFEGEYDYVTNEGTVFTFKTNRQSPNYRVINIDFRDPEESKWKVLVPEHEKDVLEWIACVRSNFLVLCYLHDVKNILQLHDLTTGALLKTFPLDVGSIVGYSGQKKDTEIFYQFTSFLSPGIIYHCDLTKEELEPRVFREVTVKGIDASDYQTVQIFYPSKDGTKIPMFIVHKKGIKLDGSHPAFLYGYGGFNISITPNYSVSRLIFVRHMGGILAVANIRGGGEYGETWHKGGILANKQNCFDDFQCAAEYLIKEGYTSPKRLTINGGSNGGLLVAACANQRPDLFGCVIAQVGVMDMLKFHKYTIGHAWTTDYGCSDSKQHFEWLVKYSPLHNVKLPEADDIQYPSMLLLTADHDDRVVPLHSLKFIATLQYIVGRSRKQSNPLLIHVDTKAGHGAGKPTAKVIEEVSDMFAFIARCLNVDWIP
# protocol.text: Biochemical human prolyl endopeptidase (PREP) assay with fluorescently labelled substrate
# applied.conditions: substrate Z-Gly-Pro-AMC 50 μM, 32° C., 60 min; some as mean values from multiple independent determinations
pIC50: −log10 of the molar value.
measured.quantity: pIC50

>>> observed_measurement("Cc1ccc(Cn2nc3n(c2=O)[C@H](C(=O)N2C[C@@H](F)[C@@H](F)C2)CCC3)cc1")
9.24
>>> observed_measurement("O=C([C@@H]1CCCc2nn(/C=C/c3ccc(F)cc3)c(=O)n21)N1CCCC1")
6.49
>>> observed_measurement("O=C(C1CC(C(F)(F)F)Cc2nn(Cc3ccc(Cl)nc3)c(=O)n21)N1CC[C@@H](F)C1 (mixture of isomers) [Example 245]")
8.16
>>> observed_measurement("O=C([C@@H]1CCCc2nn(Cc3nccc(C(F)(F)F)c3Cl)c(=O)n21)N1CCC(F)(F)C1")
8.47
